Ref: patent US20240374573A1

- tested.system: α2AAR (α2A-adrenergic receptor) (Homo sapiens, UniProt P08913)
- Construct: expressed in transfected cells; host or cells: HEK293
- Sequence (P08913 1-465): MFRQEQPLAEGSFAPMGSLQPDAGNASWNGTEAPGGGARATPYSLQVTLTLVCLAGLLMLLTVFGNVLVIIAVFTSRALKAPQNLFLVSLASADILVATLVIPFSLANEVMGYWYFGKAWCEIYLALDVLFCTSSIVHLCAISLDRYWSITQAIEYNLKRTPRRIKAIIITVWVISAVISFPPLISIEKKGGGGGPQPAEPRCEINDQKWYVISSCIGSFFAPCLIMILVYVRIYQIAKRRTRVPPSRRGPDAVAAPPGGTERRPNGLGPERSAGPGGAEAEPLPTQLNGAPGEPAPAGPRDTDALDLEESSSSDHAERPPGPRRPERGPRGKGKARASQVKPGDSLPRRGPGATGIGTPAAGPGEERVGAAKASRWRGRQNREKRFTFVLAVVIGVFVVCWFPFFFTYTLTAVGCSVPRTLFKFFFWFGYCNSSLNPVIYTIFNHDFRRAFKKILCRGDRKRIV
- assay.comment: α2AAR FLIPR assay (agonist activity)
- Assay type: cell-based
- setup.conditions: FLIPR, α2AAR cell line hosted in HEK293 cells; read-out: α2A agonist activity (EC50)
pEC50: −log10 of the molar value.
Entries and their pEC50 values follow.

COCCOCCOCCOCCOCCc1ccc2ccccc2c1Nc1ccncc1 = 6.60 to 7.30
Cc1cccc(C(Cc2ccc(S(=O)(=O)NC3COC3)cc2)c2c[nH]cn2)c1C (stereo not shown) = > 8.00
Cc1cccc(C(Cc2ccc(C(C)c3nnn[nH]3)cc2)c2c[nH]cn2)c1C (stereo not shown) = 7.30 to 8.00
Cc1cccc(C(Cc2ccc(O)c(O)c2)c2c[nH]cn2)c1C (stereo not shown) = 7.30 to 8.00
Cc1cccc(C(Cc2ccc(NS(C)(=O)=O)cc2)c2c[nH]cn2)c1C (racemic) = > 8.00
CC(=O)Nc1ccc(CC(c2c[nH]cn2)c2cccc(C)c2C)cn1 (stereo not shown) = 7.30 to 8.00
CCS(=O)(=O)Nc1cccc(C(c2c[nH]cn2)c2cccc(C)c2C)c1 (stereo not shown) = 7.30 to 8.00
Cc1cccc(C(c2c[nH]cn2)c2cccc(C(=O)NCC3CCOCC3)c2O)c1C (stereo not shown) = 7.30 to 8.00

Let's switch to this compound now.
Reported pEC50 of Cc1cccc(C(Cc2ccc(C(=O)NC3CCOCC3)nc2)c2c[nH]cn2)c1C (stereo not shown) : 7.30 to 8.00

---

- tested.system: α2AAR (α2A-adrenergic receptor) (Homo sapiens)
- Construct: expressed in transfected cells; host or cells: HEK293
- assay.comment: α2AAR FLIPR assay (agonist activity)
- Type: cell-based
- setup.conditions: FLIPR, α2AAR cell line hosted in HEK293 cells; read-out: α2A agonist activity (EC50)
pEC50: −log10 of the molar value.
measured.metric: pEC50

In the examples that follow, each entry is paired with its recorded pEC50.
CONC(=O)c1cccc(CC(NC2=NCCS2)c2cccc(Cl)c2)c1 (centres unmarked) = 6.60 to 7.30
CONC(=O)c1ccc2ccccc2c1Nc1ccncc1 = 6.60 to 7.30
Cc1cn(-c2cccc(C(c3c[nH]cn3)c3cccc(C)c3C)c2)nn1 (centres unmarked) = 7.30 to 8.00
Cc1cccc(C(c2cccc(NC(=O)Cc3ccncc3)c2)c2c[nH]cn2)c1C (centres unmarked) = 7.30 to 8.00

Let's switch to this compound now.
// pEC50 lookup, compound = Cc1c(CF)cccc1C(c1cccc(NS(C)(=O)=O)c1)c1c[nH]cn1 (racemic) , result: 7.30 to 8.00

---

Below, each entry is listed alongside its reported pKi.
- tested.system: α2AAR (Homo sapiens, UniProt P08913)
- Construct: host or cells: HEK293 (membranes)
- assay.comment: α2AAR binding assay ([3H]-RX 821002 radioligand)
- setup.conditions: [3H]-RX 821002 0.5 nM, HEK293 membranes; read-out: α2A affinity (Ki)
pKi: −log10 of the molar value.

Cc1cccc(C(c2c[nH]cn2)c2cccc(C(=O)NCC3CCOCC3)c2O)c1C (stereo not shown) [compound 138] = > 8.00
Cc1cccc(C(c2cccc(NC(=O)CC3CCCOC3)c2)c2c[nH]cn2)c1C (stereo not shown) [compound 104] = > 8.00
Cc1cccc(C(c2cccc(NC(=O)CC3CCCCO3)c2)c2c[nH]cn2)c1C (stereo not shown) [compound 96] = > 8.00

α2AAR (Homo sapiens, UniProt P08913) pKi of Cc1c(CO)cccc1C(c1cccc(NS(C)(=O)=O)c1)c1c[nH]cn1 (stereo not shown) [compound 115] is 6.00 to 6.60

GET /values?item= CNC(=O)c1ccc(CC(c2c[nH]cn2)c2cccc(C)c2C)cc1 (stereo not shown) [compound 215] &system= α2AAR (Homo sapiens, UniProt P08913) returns pKi: > 8.00

# pKi measured on α2AAR (Homo sapiens, UniProt P08913) for item Cc1cccc(C(c2cccc(NS(=O)(=O)CC3CCOC3)c2)c2c[nH]cn2)c1C (stereo not shown) [compound 86] = > 8.00

The compound CCc1cscc1C(c1cccc(NS(C)(=O)=O)c1)c1c[nH]cn1 (stereo not shown) [compound 401] on α2AAR (Homo sapiens, UniProt P08913): pKi was > 8.00

Tested on α2AAR (Homo sapiens, UniProt P08913), the item COP(=O)(CC1CCOCC1)Nc1cccc(C(c2c[nH]cn2)c2cccc(C)c2C)c1 (stereo not shown) [compound 167] showed pKi equal to 7.30 to 8.00

Param item: Cc1cccc(C(c2cccc(NC(=O)CN(C)C)c2)c2c[nH]cn2)c1C (stereo not shown) [compound 110] ; param system: α2AAR (Homo sapiens, UniProt P08913); output pKi: 6.60 to 7.30

Case CC(=O)Nc1ccc(CC(c2c[nH]cn2)c2cccc(C)c2C)cc1F (stereo not shown) [compound 193] , α2AAR (Homo sapiens, UniProt P08913), pKi recorded as > 8.00

---

Known EC50 of a selection of molecules
- tested.system: α2AAR (α2A-adrenergic receptor) (Homo sapiens)
- Construct: expressed in transfected cells; host or cells: HEK293
- Sequence (P08913 1-465): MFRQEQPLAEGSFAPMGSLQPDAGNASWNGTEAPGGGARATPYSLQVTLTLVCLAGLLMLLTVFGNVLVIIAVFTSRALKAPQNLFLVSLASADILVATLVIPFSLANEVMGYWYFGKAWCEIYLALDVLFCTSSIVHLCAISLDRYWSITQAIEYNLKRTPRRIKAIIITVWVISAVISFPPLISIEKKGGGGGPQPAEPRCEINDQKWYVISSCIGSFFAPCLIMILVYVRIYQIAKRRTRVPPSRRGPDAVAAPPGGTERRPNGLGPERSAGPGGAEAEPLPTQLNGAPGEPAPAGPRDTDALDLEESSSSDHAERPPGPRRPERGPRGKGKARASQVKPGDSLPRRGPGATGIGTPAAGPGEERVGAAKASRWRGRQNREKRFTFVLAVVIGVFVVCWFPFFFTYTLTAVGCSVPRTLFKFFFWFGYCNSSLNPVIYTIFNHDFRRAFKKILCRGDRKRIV
- assay.comment: α2AAR FLIPR assay (agonist activity)
- Format: cell-based
- setup.conditions: FLIPR, α2AAR cell line hosted in HEK293 cells; read-out: α2A agonist activity (EC50)

Would you please look over these solved cases?
COCCOCCOCCOCCOCCOCCCC(c1c[nH]cn1)c1cccc(C)c1C (centres unmarked) [compound 21] = > 1000 nM
CONC(=O)c1cccc(C(c2c[nH]cn2)c2cccc(C(F)(F)F)c2C)c1 (centres unmarked) [compound 52] = 250 to 1000 nM
Cc1cccc(C(c2cccc(NS(=O)(=O)CC3CCCCO3)c2)c2c[nH]cn2)c1C (centres unmarked) [compound 173] = 10 to 50 nM
CSCCC(=O)Nc1cccc(C(c2c[nH]cn2)c2cccc(C)c2C)c1 (centres unmarked) [compound 63] = 10 to 50 nM

Alright, here's another molecule for you.
Notebook: Cc1cccc(C(c2c[nH]cn2)c2cccc(S(N)(=O)=O)c2O)c1C (centres unmarked) [compound 150] , EC50 read as 50 to 250 nM

---

- tested.system: α2AAR (Homo sapiens, UniProt P08913)
- Construct: host or cells: HEK293 (membranes)
- assay.comment: α2AAR binding assay ([3H]-RX 821002 radioligand)
- setup.conditions: [3H]-RX 821002 0.5 nM, HEK293 membranes; read-out: α2A affinity (Ki)
Entries and their Ki values follow.

Example results:
CNc1ccc(CC(c2c[nH]cn2)c2cccc(C)c2C)cc1 (centres unmarked) [compound 203] = < 10 nM
CNC(=O)c1ccc(CC(c2c[nH]cn2)c2cccc(C)c2C)cc1F (centres unmarked) [compound 192] = < 10 nM
Cc1cccc(C(c2cccc(NC(=O)CC[N+](C)(C)C)c2)c2c[nH]cn2)c1C (centres unmarked) [compound 141] = 10 to 50 nM

Ki recorded for this molecule, Cc1cccc(C(Cc2ccc3c(c2)OCCN3)c2c[nH]cn2)c1C (centres unmarked) [compound 235] , is < 10 nM

Documented Ki of Cc1cccc(C(Cc2ccc(NC(=O)C3CCOCC3)nc2)c2c[nH]cn2)c1C (centres unmarked) [compound 242] : 50 to 250 nM

Entry under test: Cc1cccc(C(c2cccc(NC(=O)NC3CC3)c2)c2c[nH]cn2)c1C (centres unmarked) [compound 109] . Its Ki was 10 to 50 nM

Quick note, Ki for Cc1cccc(C(Cc2ccc(NS(C)(=O)=O)cc2)C2=NCCN2)c1C (centres unmarked) [compound 518] landed at 50 to 250 nM

Record Cc1cccc(C(c2cccc(C(=O)NCC3CCOCC3)c2)c2c[nH]cn2)c1C (single isomer, unassigned) [98-B] , field Ki: < 10 nM

Short answer for CNC(=O)Nc1cccc(C(c2c[nH]cn2)c2cccc(C)c2C)c1 (centres unmarked) [compound 128] : Ki was 50 to 250 nM

For this molecule ( Cc1cccc(C(c2cccc(CCN3CCC(O)CC3)c2)c2c[nH]cn2)c1C (centres unmarked) [compound 125] ), measured Ki is 10 to 50 nM

The reported value for Cc1cccc(C(c2c[nH]cn2)c2cccc(C(N)=O)c2F)c1C (single isomer, unassigned) [45-A] in terms of Ki is > 1000 nM
